Tested on: HOP-62 NSCLC
Test: NCI tumour cell line growth inhibition, 48 h; in the data active = GI50 below about 0.43 µM; inactive = the rest
Could you please pick one outcome from this set? active, inactive

{"molecule": "CC[C@@]1(O)C(=O)OCc2c1cc1n(c2=O)Cc2cc3c(N)c(OC)ccc3nc2-1", "assigned-label": "active"}
{"molecule": "Nc1ccccc1SC(CC(=O)c1ccccc1)c1c(Cl)cccc1Cl (configuration not stated)", "assigned-label": "inactive"}
{"molecule": "CCOC(=O)c1nc2sc(Cl)cn2c1/C=N/N=C(N)N", "assigned-label": "inactive"}
{"molecule": "NC(=O)c1c(NC(=O)c2ccc(C(F)(F)F)cc2Cl)sc2c1CCC(=O)C2", "assigned-label": "inactive"}
{"molecule": "C[C@H]1CCC/C=C/[C@@H]2C[C@H](O)C[C@H]2[C@H](O)C(O)C(O)C(=O)O1 (some centres not stated)", "assigned-label": "inactive"}

Incoming: Per the records of this test, what outcome belongs to Cc1c(C(=O)Nc2ccc(Oc3ccnc4cc(OCC(C)(C)O)ccc34)c(F)c2)c(=O)n(-c2ccccc2)n1C ?
Outgoing: inactive

Incoming: Per the records of this test, what outcome belongs to O=C1C=CC(=O)N1c1ccc2ccccc2c1 ?
Outgoing: inactive
